I'd be grateful if you could share measured ACTIVITY (compared to control) for these entries.
test system: insulin receptor (IR); experiment: Phosphotyrosine enzyme linked immunosorbent assay: pTyr on insulin receptor in NIH3T3 cells over-expressing human IR (H25 cells); conditions: Table I; […]
Give bare numbers, in %.

Solved cases below.
STRUCTURE AS SMILES	TARGET OR TEST SYSTEM	ACTIVITY (compared to control) (%)
O=[N+]([O-])c1cnc(Sc2nnc(O)n2C2CCCCC2)s1	insulin receptor (IR)	30
O=[N+]([O-])c1cnc(Sc2nnc(O)n2-c2ccccc2)s1	insulin receptor (IR)	30
CCn1nc(C)cc1-c1nnc(Sc2ncc([N+](=O)[O-])s2)n1CCCOC	insulin receptor (IR)	50
O=[N+]([O-])c1cnc(Sc2nnc(O)n2-c2ccccc2C(F)(F)F)s1	insulin receptor (IR)	30
O=[N+]([O-])c1cnc(Sc2n[nH]c(-c3ccccc3)n2)s1	insulin receptor (IR)	30

Parameter requested: ACTIVITY (compared to control). Apply to each item below.
1. O=[N+]([O-])c1cnc(Sc2n[nH]c(-c3cccs3)n2)s1
2. O=[N+]([O-])c1cnc(Sc2nc(-c3ccc(Cl)cc3)n[nH]2)s1

## Output
[50, 30]
